Biological target: hGIPR (Homo sapiens)
Construct: expressed in transfected cells; host or cells: CHO cells carrying a CRE-luciferase reporter gene
Sequence (P48546 22-466): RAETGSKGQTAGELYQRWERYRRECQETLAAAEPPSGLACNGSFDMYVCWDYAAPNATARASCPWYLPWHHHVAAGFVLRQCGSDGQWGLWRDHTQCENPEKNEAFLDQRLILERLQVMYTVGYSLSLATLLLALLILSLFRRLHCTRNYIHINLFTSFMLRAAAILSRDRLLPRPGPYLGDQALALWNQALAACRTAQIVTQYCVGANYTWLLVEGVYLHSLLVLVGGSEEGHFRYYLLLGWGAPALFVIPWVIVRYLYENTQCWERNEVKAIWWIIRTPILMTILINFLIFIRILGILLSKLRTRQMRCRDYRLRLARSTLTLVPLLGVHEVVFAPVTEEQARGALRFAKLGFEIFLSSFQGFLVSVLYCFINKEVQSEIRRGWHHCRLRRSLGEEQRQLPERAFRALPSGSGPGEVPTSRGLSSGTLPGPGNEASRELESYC
Assay: hGIPR CreLuc reporter gene assay in 0.5% and 100% plasma
Type: cell-based
Conditions: CreLuc reporter gene assay, 100% human plasma; read-out: hGIPR 100% hP
Starred links: 1 amine or outer side, 2 acyl side, 3 side chain; linkers in the order of their positions; H or OH if unused. Non-standard residues stand in square brackets, D forms with d. Groups on a side chain read outwards from the residue. *: point of attachment. C20 diacid = O=C(O)CCCCCCCCCCCCCCCCCCC(=O)*; C18 diacid = O=C(O)CCCCCCCCCCCCCCCCC(=O)*; γGlu = O=C(O)[C@H](CCC(=O)[*:2])N[*:1]; εLys = N[C@@H](CCCCN[*:1])C(=O)[*:2]; NMeR = CN[C@@H](CCCNC(=N)N)C(=O)O; hArg = N=C(N)NCCCC[C@H](N)C(=O)O; β3hQ = NC(=O)CC[C@H](N)CC(=O)O; AEEA = NCCOCCOCC(=O)O; Aib = CC(C)(N)C(=O)O
measured-parameter: pEC50
Keep it numeric: pEC50 is minus log10 of the concentration in mol/L.

Request: Input H-Y[Aib]EGTFTSDYSI[Aib]LEEQAQ[Aib]AFVQWLIK([εLys-γGlu-γGlu-γGlu-γGlu-γGlu-C20 diacid])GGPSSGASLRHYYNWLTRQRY-NH2 [Compound 34] , output reported pEC50.
Result: 8.79

Request: Input H-Y[Aib]EGTFTSDYSI[Aib]LEEQAQ[Aib]AFVEWLIK([εLys-γGlu-γGlu-γGlu-γGlu-C20 diacid])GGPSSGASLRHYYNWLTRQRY-NH2 [Compound 97] , output reported pEC50.
Result: 9.02

Request: Input H-Y[Aib]EGTFTSDYSI[Aib]LEKQAQ[Aib]AFVEWLIK([εLys-γGlu-γGlu-γGlu-γGlu-γGlu-C18 diacid])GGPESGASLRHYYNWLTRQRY-NH2 [Compound 152] , output reported pEC50.
Result: 9.02

Request: Input H-Y[Aib]EGTFTSDYSI[Aib]LEKQAQ[Aib]AFVEWLIK([εLys-γGlu-γGlu-γGlu-γGlu-γGlu-γGlu-C20 diacid])GGPSSGASLR[Aib]YYNWLTRQRY-NH2 [Compound 182] , output reported pEC50.
Result: 8.86

Request: Input H-Y[Aib]EGTFTSDYSI[Aib]LEKQAQ[Aib]AFVEWLIK([εLys-γGlu-γGlu-γGlu-γGlu-γGlu-γGlu-C20 diacid])GGPSSGASLRHYYN[Aib]LTRQRY-NH2 [Compound 218] , output reported pEC50.
Result: 8.63

Request: Input H-Y[Aib]EGTFTSDYSI[Aib]LEKQAQ[Aib]AFVQWLIK([AEEA-AEEA-γGlu-γGlu-γGlu-C18 diacid])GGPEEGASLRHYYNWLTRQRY-NH2 [Compound 144] , output reported pEC50.
Result: 9.10

Request: Input H-Y[Aib]EGTFTSDYSI[Aib]LERQAQ[Aib]AFVEWLIK([εLys-γGlu-γGlu-γGlu-γGlu-γGlu-γGlu-C20 diacid])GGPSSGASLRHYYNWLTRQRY-NH2 [Compound 131] , output reported pEC50.
Result: 8.53

Request: Input H-Y[Aib]EGTFTSDYSI[Aib]LEKQAQ[Aib]AFVEWLIK([εLys-γGlu-γGlu-γGlu-γGlu-γGlu-γGlu-C20 diacid])GGPSEYESLRHYYNWLTRQRY-NH2 [Compound 93] , output reported pEC50.
Result: 8.63

Request: Input H-Y[Aib]EGTFTSDYSI[Aib]LEKQAQ[Aib]AFVEWLIK([εLys-γGlu-γGlu-γGlu-γGlu-γGlu-γGlu-C20 diacid])GGPSSGAS[Aib]RHYYNWLTRQR[dY]-NH2 [Compound 74] , output reported pEC50.
Result: 9.21

Request: Input H-Y[Aib]EGTFTSDYSI[Aib]LEKQAQ[Aib]AFVQWLIK([εLys-γGlu-γGlu-γGlu-γGlu-γGlu-γGlu-C20 diacid])GGPSEGASLRHYYNWLTRQ[NMeR]Y-NH2 [Compound 125] , output reported pEC50.
Result: 8.76

Request: Input H-Y[Aib]EGTFTSDYSI[Aib]LEKEAQ[Aib]KFVEWLIK([εLys-γGlu-γGlu-γGlu-γGlu-γGlu-γGlu-C20 diacid])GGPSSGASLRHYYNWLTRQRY-NH2 [Compound 46] , output reported pEC50.
Result: 8.92

Request: Input H-Y[Aib]EGTFTSDYSI[Aib]LEKQAQ[Aib]AFVEWLIK([εLys-γGlu-γGlu-γGlu-γGlu-γGlu-γGlu-C20 diacid])GGPSSGASLRHYYNWLTR[β3hQ]RY-NH2 [Compound 208] , output reported pEC50.
Result: 9.09

Request: Input H-Y[Aib]EGTFTSDYSI[Aib]LEKQAQ[Aib]EFVEWLIK([AEEA-AEEA-γGlu-C18 diacid])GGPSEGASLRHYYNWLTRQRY-NH2 [Compound 282] , output reported pEC50.
Result: 8.99

Request: Input H-Y[Aib]EGTFTSDYSI[Aib]LEKQAQ[Aib]AFVQWLIK([εLys-γGlu-γGlu-γGlu-γGlu-γGlu-γGlu-C18 diacid])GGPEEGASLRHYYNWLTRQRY-NH2 [Compound 149] , output reported pEC50.
Result: 9.10

Request: Input H-Y[Aib]EGTFTSDYSI[Aib]LEKQAQ[Aib]AFVEWLIK([εLys-γGlu-γGlu-γGlu-γGlu-γGlu-γGlu-C20 diacid])GGPSSGASLRHYYNWLT[hArg]QR[dY]-NH2 [Compound 71] , output reported pEC50.
Result: 9.19

Request: Input H-Y[Aib]EGTFTSDYSI[Aib]LEKQAQ[Aib]EFVEWLIK([εLys-γGlu-γGlu-γGlu-γGlu-γGlu-γGlu-C20 diacid])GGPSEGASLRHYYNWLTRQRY-NH2 [Compound 275] , output reported pEC50.
Result: 8.76

Request: Input H-Y[Aib]EGTFTSDYSI[Aib]LEKQAQ[Aib]AFVQWLIK([εLys-γGlu-γGlu-γGlu-γGlu-γGlu-γGlu-C20 diacid])GGPSSGVSLRHYYNWLTRQRY-NH2 [Compound 47] , output reported pEC50.
Result: 9.14

Request: Input H-Y[Aib]EGTFTSDYSI[Aib]LEKAAQ[Aib]AFVEWLIK([εLys-γGlu-γGlu-γGlu-γGlu-γGlu-γGlu-C20 diacid])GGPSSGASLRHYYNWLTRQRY-NH2 [Compound 136] , output reported pEC50.
Result: 8.69

Request: Input H-Y[Aib]EGTFTSDYSI[Aib]LEKQAQ[Aib]AFVEWLIK([εLys-γGlu-γGlu-γGlu-γGlu-γGlu-γGlu-C20 diacid])GGPSEGQSIRHYYNWLTRQRY-NH2 [Compound 134] , output reported pEC50.
Result: 9.08

Request: Input H-Y[Aib]EGTFTSDYSI[Aib]LEKQAQ[Aib]AFVEWLIK([γGlu-γGlu-γGlu-γGlu-C18 diacid])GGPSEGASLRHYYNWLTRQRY-NH2 [Compound 294] , output reported pEC50.
Result: 9.05

The measurements presented in this section are drawn from patent US20240247080A1.
